# credit: ChEMBL document CHEMBL1139117

molecular target: Alpha-2C adrenergic receptor (Homo sapiens, UniProt P18825); assay: Displacement of [3H]MK912 from adrenergic Alpha-2C receptor in HepG2 cells
Observation type: Ki (nM)
One number for each entry, in nM.

Solved cases (4 shown):
>>> numeric_readout("COc1cc2c(cc1OC)CN(Cc1ccc(OC)c3oc(-c4ccccc4C(F)(F)F)cc13)CC2")
18
>>> numeric_readout("COc1cc2c(cc1OC)CN(Cc1ccc(OC)c3oc(C(=O)N4CCC(N5CCCC5)CC4)cc13)CC2")
3.5
>>> numeric_readout("COc1cc2c(cc1OC)CN(Cc1ccc(OC)c3oc(C(=O)NCC(C)(C)N)cc13)CC2")
4.2
>>> numeric_readout("COc1cc2c(cc1OC)CN(Cc1ccc(OC)c3oc(C(=O)NCCN(C)C)cc13)CC2")
9.4

Provide Ki values for the following items, in order.
1. COc1cccc(-c2cc3c(CN4CCc5cc(OC)c(OC)cc5C4)ccc(OC)c3o2)c1
2. COc1cc2c(cc1OC)CN(Cc1ccc(OC)c3oc(C(=O)NC4CN5CCC4CC5)cc13)CC2 (configuration not stated)
3. COc1cc2c(cc1OC)CN(Cc1ccc(OC)c3oc(-c4ccco4)cc13)CC2

[reply]
19
0.8
8

----------
Target: Alpha-2B adrenergic receptor (Homo sapiens)
Sequence (P18089 whole entry): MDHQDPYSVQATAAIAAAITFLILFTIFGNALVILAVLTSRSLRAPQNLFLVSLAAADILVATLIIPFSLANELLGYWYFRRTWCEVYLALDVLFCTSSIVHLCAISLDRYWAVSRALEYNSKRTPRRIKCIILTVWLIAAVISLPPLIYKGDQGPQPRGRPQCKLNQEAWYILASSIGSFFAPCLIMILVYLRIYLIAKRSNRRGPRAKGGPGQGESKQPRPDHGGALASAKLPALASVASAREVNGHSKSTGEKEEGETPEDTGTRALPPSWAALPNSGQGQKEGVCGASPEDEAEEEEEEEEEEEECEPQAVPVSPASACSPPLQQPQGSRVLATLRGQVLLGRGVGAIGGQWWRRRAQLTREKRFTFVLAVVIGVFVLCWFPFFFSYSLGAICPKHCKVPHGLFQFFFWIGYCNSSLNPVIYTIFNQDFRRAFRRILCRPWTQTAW
Observation type: Ki (nM)
Numbers only, in nM.

>>> numeric_readout("COc1cccc(-c2cc3c(CN4CCc5cc(OC)c(OC)cc5C4)ccc(OC)c3o2)c1")
804

Provide Ki values for the following items, in order.
1. COc1cc2c(cc1OC)CN(Cc1cnc(N)n3nc(-c4ccco4)nc13)CC2
2. COc1cc2c(cc1OC)CN(Cc1ccc(OC)c3oc(C(=O)NC4CN5CCC4CC5)cc13)CC2 (stereo not given)
3. COc1cc2c(cc1OC)CN(Cc1ccc(OC)c3oc(C(=O)NCCN(C)C)cc13)CC2
4. COc1cc2c(cc1OC)CN(Cc1ccc(OC)c3oc(-c4ccccc4)cc13)CC2

[reply]
[370, 857, 2070, 752]

----------
assay: AUC in mormoset at 2.5 mg/kg; format: ADME, organism-based, Callithrix jacchus; design: dose 2.5 mg/kg; conditions: marmoset, plasma
For each entry below, report its AUC value.
Units required after the number.

>>> result("COc1cc2c(cc1OC)CN(Cc1ccc(OC)c3oc(-c4ccccc4)cc13)CC2")
"11 ng·h/mL"

[ask] # get_value(readout='AUC', item= "COc1cc2c(cc1OC)CN(Cc1ccc(OC)c3oc(C(=O)NCCN(C)C)cc13)CC2" )
[reply] 144 ng·h/mL

----------
Target: Alpha-2C adrenergic receptor (Homo sapiens)
Sequence (whole entry): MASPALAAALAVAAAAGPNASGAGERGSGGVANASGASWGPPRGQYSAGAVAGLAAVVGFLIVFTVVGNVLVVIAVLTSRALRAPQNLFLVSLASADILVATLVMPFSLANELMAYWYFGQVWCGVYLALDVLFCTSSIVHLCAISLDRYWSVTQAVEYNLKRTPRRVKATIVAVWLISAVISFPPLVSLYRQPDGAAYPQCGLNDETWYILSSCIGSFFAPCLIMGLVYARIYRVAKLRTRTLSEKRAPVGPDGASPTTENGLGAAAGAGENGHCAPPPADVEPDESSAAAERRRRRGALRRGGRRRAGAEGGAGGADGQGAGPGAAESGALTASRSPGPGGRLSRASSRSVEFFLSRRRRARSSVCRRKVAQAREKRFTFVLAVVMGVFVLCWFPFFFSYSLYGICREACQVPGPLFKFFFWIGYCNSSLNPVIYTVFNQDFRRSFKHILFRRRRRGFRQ
Test: Displacement of [3H]MK912 from adrenergic alpha-2C receptor in HepG2 cells at 0.1 uM
Type: cell-based
Observation type: inhibition (%)
One number for each entry, in %.

Solved cases (4 shown):
>>> numeric_readout("COc1cc2c(cc1OC)CN(Cc1ccc(OC)c3oc(-c4cccc(C#N)c4)cc13)CC2")
42
>>> numeric_readout("CCCNC(=O)c1cc2c(CN3CCc4cc(OC)c(OC)cc4C3)ccc(OC)c2o1")
20
>>> numeric_readout("COc1cc2c(cc1OC)CN(Cc1ccc(OC)c3oc(-c4ccc(C(F)(F)F)cc4)cc13)CC2")
18
>>> numeric_readout("COc1cc2c(cc1OC)CN(Cc1ccc(OC)c3oc(C(=O)NCCO)cc13)CC2")
6

For the next question, use this compound.
[ask] Provide value of inhibition for this record tested with Alpha-2C adrenergic receptor (Homo sapiens): "COc1cc2c(cc1OC)CN(Cc1cc(OC)c3oc(C(=O)NCCN(C)C)cc3c1)CC2"
[reply] 41

----------
target: Alpha-2C adrenergic receptor (Homo sapiens); assay: Displacement of [3H]MK912 from adrenergic alpha-2C receptor in HepG2 cells at 0.1 uM; assay type: cell-based
For each entry below, report its inhibition value.
Answers are plain numbers, in %.

Solved cases (5 shown):
>>> numeric_readout("COc1ccc(CN2CCN(c3ccccc3)CC2)c2cc(-c3ccccc3)oc12")
29
>>> numeric_readout("COc1cc2c(cc1OC)CN(Cc1ccc(OC)c3oc(-c4cccc(F)c4)cc13)CC2")
52
>>> numeric_readout("CCCNC(=O)c1cccc(-c2cc3c(CN4CCc5cc(OC)c(OC)cc5C4)ccc(OC)c3o2)c1")
48
>>> numeric_readout("COc1cc2c(cc1OC)CN(Cc1ccc3cc(-c4ccccc4)oc3c1OC)CC2")
39
>>> numeric_readout("COc1cc2c(cc1OC)CN(Cc1cc(OC)c3oc(-c4ccccc4)cc3c1)CC2")
19

Provide inhibition values for the following items, in order.
1. COc1cc2c(cc1OC)CN(Cc1ccc(OC)c3oc(-c4cccc(C(=O)NCCO)c4)cc13)CC2
2. COc1cc2c(cc1OC)CN(Cc1ccc(OC)c3oc(C(=O)NCCNC(C)=O)cc13)CC2

[reply]
1: 54; 2: 9

Provide inhibition values for the following items, in order.
1. COc1ccc(CN2CCc3ccccc3C2)c2cc(C(=O)NCCN(C)C)oc12
2. COc1cc2c(cc1OC)CN(Cc1ccc(OC)c3oc(-c4ccccc4OC)cc13)CC2

[reply]
94
35

----------
target: UniProt P18089; experiment: Displacement of [3H]MK912 from adrenergic alpha-2B receptor expressed in COS7 cells at 0.1 uM; format: cell-based; settings: COS-7
Everything with inhibition lower than 20% is 0; everything else, including exactly 20%, is 1.

// below: answered compounds
>>> classification("COc1cc2c(cc1OC)CN(Cc1ccc3cc(C(=O)NCCN(C)C)oc3c1OC)CC2")
0
>>> classification("COc1ccc(CN2CCN(c3ccccc3)CC2)c2cc(C(=O)NCCN(C)C)oc12")
1
>>> classification("COc1cc2c(cc1OC)CN(Cc1ccc(OC)c3oc(-c4cccc(C(=O)NCCO)c4)cc13)CC2")
1

[ask] Would you say "COc1ccc(CN2CCc3ccccc3C2)c2cc(-c3ccccc3)oc12" shows inhibition at minimum 20%?
[reply] 1

[ask] Next up: "COc1cc2c(cc1OC)CN(Cc1ccc(OC)c3oc(-c4cccc(F)c4)cc13)CC2"
[reply] 0

[ask] Next up: "COc1ccc(CN2CCc3ccccc3C2)c2cc(C(=O)NCCN(C)C)oc12"
[reply] 1

----------
target: Alpha-2C adrenergic receptor (Homo sapiens) (UniProt P18825); experiment: Displacement of [3H]MK912 from adrenergic alpha-2C receptor in HepG2 cells at 0.1 uM; type: cell-based
For each entry below, report its inhibition value.
Units required after the number.

Solved cases (6 shown):
>>> result("COc1cc2c(cc1OC)CN(Cc1ccc(OC)c3oc(-c4cccnc4)cc13)CC2")
"62%"
>>> result("COc1cc2c(cc1OC)CN(Cc1ccc(OC)c3oc(-c4ccncc4)cc13)CC2")
"35%"
>>> result("COc1ccc(CN2CCc3ccccc3C2)c2cc(-c3ccccc3)oc12")
"54%"
>>> result("COc1ccc(-c2cc3c(CN4CCc5cc(OC)c(OC)cc5C4)ccc(OC)c3o2)cc1")
"56%"
>>> result("COc1ccc(CN2CCN(c3ccccc3)CC2)c2cc(C(=O)NCCN(C)C)oc12")
"68%"
>>> result("COc1cc2c(cc1OC)CN(Cc1ccc3cc(C(=O)NCCN(C)C)oc3c1OC)CC2")
"65%"

For the next question, use this compound.
[ask] # get_value(readout='inhibition', item= "COc1cc2c(cc1OC)CN(Cc1ccc(OC)c3oc(-c4ccc(F)cc4)cc13)CC2" )
[reply] 41%
